subjectOfTest: T1, mSNAPc#2 SNAP50-R151A (Homo sapiens, UniProt Q5SXM2;Q92966;Q16533;O75971 1-505;1-411;1-268;1-98, R151A)
T1 sequence 1: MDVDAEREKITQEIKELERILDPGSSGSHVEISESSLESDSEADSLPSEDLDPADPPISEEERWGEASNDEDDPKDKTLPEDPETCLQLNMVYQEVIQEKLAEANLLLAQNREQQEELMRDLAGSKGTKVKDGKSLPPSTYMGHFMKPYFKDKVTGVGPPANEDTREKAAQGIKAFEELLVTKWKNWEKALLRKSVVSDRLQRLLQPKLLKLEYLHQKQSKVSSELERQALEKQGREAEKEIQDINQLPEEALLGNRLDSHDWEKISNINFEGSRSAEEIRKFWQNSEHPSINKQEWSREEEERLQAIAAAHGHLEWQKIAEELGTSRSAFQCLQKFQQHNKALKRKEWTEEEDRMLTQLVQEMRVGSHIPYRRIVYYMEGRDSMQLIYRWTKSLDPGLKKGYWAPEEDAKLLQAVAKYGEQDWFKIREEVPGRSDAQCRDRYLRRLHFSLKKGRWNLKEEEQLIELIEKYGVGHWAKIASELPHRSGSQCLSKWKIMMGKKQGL
T1 sequence 2: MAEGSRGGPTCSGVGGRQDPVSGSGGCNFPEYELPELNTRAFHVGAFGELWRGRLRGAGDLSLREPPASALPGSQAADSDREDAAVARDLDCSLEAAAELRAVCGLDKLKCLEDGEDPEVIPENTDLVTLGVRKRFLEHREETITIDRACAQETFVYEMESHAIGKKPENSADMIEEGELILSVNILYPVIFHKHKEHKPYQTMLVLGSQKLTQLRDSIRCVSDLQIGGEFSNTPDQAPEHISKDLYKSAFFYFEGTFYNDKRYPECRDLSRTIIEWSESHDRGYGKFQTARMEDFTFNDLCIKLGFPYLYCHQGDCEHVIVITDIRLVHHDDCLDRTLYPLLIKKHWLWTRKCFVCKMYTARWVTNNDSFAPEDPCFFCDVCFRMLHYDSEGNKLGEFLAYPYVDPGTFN
T1 sequence 3: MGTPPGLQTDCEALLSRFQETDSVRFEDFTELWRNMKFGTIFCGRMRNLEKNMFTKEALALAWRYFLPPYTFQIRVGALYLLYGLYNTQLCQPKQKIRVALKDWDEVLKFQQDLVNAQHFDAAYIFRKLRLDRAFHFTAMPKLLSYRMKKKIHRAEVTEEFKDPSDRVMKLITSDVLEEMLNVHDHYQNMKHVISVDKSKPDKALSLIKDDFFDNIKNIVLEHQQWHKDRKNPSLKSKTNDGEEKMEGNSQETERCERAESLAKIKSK
T1 sequence 4: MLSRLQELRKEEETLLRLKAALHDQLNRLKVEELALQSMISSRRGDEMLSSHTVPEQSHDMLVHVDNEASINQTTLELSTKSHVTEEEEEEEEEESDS
test: SPR; EMSA: 100 mM KCl, 25 mM HEPES-K pH 7.6, 12.5 mM MgCl2, 10 uM ZnCl2, 0.1 mM EDTA, 10% glycerol, 3 mM DTT, 0.5 mM PMSF, 50 nM DNA, RT 30 min; SPR: 100 mM KCl, 12.5 mM MgCl2, 10 uM ZnCl2, 0.1 mM EDTA, 0.05% P20, 25 C
measurementContext: protein: recombinant; tags: as P1; copies: 1;1;1;1
attributeMeasured: pKd
# log scale: pKd equals minus log10 of the concentration in mol/L

### Prompt Please report the recorded pKd for 25 bp hU6-1 PSE (SPR) (dsDNA) DNA 1: TGCTTACCGTAACTTGAAAGTATTT DNA 2: AAATACTTTCAAGTTACGGTAAGCA .
### Response 5.94
